We begin with a simple list: items and their reported IC50.
# Subject of test: Human IL-17AF (Homo sapiens, UniProt Q16552+Q96PD4)
# Sequence (Q16552 24-155): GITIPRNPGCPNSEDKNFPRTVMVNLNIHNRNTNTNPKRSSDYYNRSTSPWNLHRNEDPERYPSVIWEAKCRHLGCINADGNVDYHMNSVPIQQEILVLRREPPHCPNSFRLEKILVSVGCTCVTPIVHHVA
# Sequence (Q96PD4 31-163): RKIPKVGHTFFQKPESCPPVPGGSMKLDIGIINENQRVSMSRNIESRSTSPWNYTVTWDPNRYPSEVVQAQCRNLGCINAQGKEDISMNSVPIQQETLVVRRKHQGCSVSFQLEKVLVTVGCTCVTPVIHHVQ
# Measurement description: IL-17AF ELISA (competitive ELISA, IL-17AF/IL-17Ra receptor-ligand binding)
# Particulars: human IL-17AF coated plate, human IL-17Ra, read-out: IC50, inhibitory activity of compounds on human IL-17AF
# Experimental: Experiment Example 2 IL-17AF ELISA The inhibitory effects of human IL-17AF inhibitors on receptor-ligand binding were quantitatively determined by a competitive ELISA. The ELISA was performed through the following steps. […] The color reaction was terminated by addition of 2.5 M HCl. Absorbance was measured at 450 nm using a BMG PHERStar microplate reader. […] The relative percent residual activity at each compound concentration was calculated according to Equation 1. […]

Molecule | IC50
Cc1[nH]nc2c1-c1cc(F)c(NC(=O)[C@@H](NC(=O)c3ccnn3CCOC(C)C)C(C3CC3)C3CC3)cc1COCC2 | 100 to 500 nM
COCCN1Cc2cc(NC(=O)[C@@H](NC(=O)c3ccnn3C(C)C)C(C3CC3)C3CC3)c(F)cc2-c2c(n[nH]c2C)CC1=O | ≤ 100 nM
[2H]C([2H])([2H])C([2H])([2H])n1nccc1C(=O)N[C@H](C(=O)Nc1cc2c(cc1F)-c1c(n[nH]c1C)CCOC2)C(C1CC1)C1CC1 | 100 to 500 nM
CC(=O)N1CCc2n[nH]c(C)c2-c2cnc(NC(=O)[C@@H](NC(=O)c3ccnn3C(C)C)C(C3CC3)C3CC3)cc2C1 | 100 to 500 nM
CCn1nccc1C(=O)N[C@H](C(=O)Nc1cc2c(cc1F)-c1c(n[nH]c1C)CCOC2)[C@H]1CC[C@H](C)CC1 | ≤ 100 nM
CCn1nccc1C(=O)N[C@H](C(=O)Nc1ccc2c(c1)CN(C)CCc1n[nH]c(C)c1-2)C(C1CC1)C1CC1 | 100 to 500 nM

Switching to the query record.
# IC50 measured on Human IL-17AF (Homo sapiens, UniProt Q16552+Q96PD4) for item CCCn1nccc1C(=O)N[C@H](C(=O)Nc1cc2c(cc1F)-c1c(n[nH]c1C)CCOC2)C(C1CC1)C1CC1 = ≤ 100 nM

====

# Subject of test: Human IL-17AF (Homo sapiens, UniProt Q16552+Q96PD4)
# Measurement description: IL-17AF ELISA (competitive ELISA, IL-17AF/IL-17Ra receptor-ligand binding)
# Particulars: human IL-17AF coated plate, human IL-17Ra, read-out: IC50, inhibitory activity of compounds on human IL-17AF
Value kind: IC50

Compound structure string | Reported
CCn1nccc1C(=O)N[C@H](C(=O)Nc1cc2c(cc1F)-c1c(n[nH]c1C)CCN(CC(F)F)C2)C(C1CC1)C1CC1 | ≤ 0.1 µM
Cc1[nH]nc2c1-c1ccc(NC(=O)[C@@H](NC(=O)c3ccnn3C(C)C)C(C3CC3)C3CC3)cc1CN(C)C(=O)C2 | ≤ 0.1 µM
CCOCCn1nccc1C(=O)N[C@H](C(=O)Nc1cc2c(cc1F)-c1c(n[nH]c1C)CCOC2)C(C1CC1)C1CC1 | ≤ 0.1 µM
Cc1[nH]nc2c1-c1cc(F)c(NC(=O)[C@@H](NC(=O)c3ccnn3CC(F)(F)F)C(C3CC3)C3CC3)cc1COCC2 | 0.1 to 0.5 µM
Cc1[nH]nc2c1-c1cc(F)c(NC(=O)[C@@H](NC(=O)c3ccnn3CCC(F)(F)F)C(C3CC3)C3CC3)cc1COCC2 | 0.1 to 0.5 µM

# IC50 measured on Human IL-17AF (Homo sapiens, UniProt Q16552+Q96PD4) for item Cc1[nH]nc2c1-c1cnc(NC(=O)[C@@H](NC(=O)c3ccnn3C(C)C)C(C3CC3)C3CC3)cc1CN(C1CC1)CC2 = 0.1 to 0.5 µM

# IC50 measured on Human IL-17AF (Homo sapiens, UniProt Q16552+Q96PD4) for item CCn1nccc1C(=O)N[C@H](C(=O)Nc1cc2c(cc1F)-c1c(n[nH]c1C)CC(=O)N(CC(F)F)C2)C(C1CC1)C1CC1 = ≤ 0.1 µM

# IC50 measured on Human IL-17AF (Homo sapiens, UniProt Q16552+Q96PD4) for item Cc1[nH]nc2c1-c1cnc(NC(=O)[C@@H](NC(=O)c3ccnn3C(C)C)C(C3CC3)C3CC3)cc1CN(Cc1ccccc1)CC2 = 0.1 to 0.5 µM

# IC50 measured on Human IL-17AF (Homo sapiens, UniProt Q16552+Q96PD4) for item CCn1nccc1C(=O)N[C@H](C(=O)Nc1ccc2c(c1)COCCc1n[nH]c(C)c1-2)[C@H]1CC[C@H](C)CC1 = 0.1 to 0.5 µM

# IC50 measured on Human IL-17AF (Homo sapiens, UniProt Q16552+Q96PD4) for item Cc1[nH]nc2c1-c1cnc(NC(=O)[C@@H](NC(=O)c3ccnn3C3CC3)C(C3CC3)C3CC3)cc1COCC2 = 0.1 to 0.5 µM

# IC50 measured on Human IL-17AF (Homo sapiens, UniProt Q16552+Q96PD4) for item Cc1[nH]nc2c1-c1cnc(NC(=O)[C@@H](NC(=O)c3ccnn3C(C)C)C(C3CC3)C3CC3)cc1CN(C1CC1)C(=O)C2 = ≤ 0.1 µM
